Protocol summary: recombinant UMI read abundance after kanamycin selection (control-corrected) (log10(CPM+1)); higher = more efficient recombination; extreme values may be limits of the assay; sequences stand for … in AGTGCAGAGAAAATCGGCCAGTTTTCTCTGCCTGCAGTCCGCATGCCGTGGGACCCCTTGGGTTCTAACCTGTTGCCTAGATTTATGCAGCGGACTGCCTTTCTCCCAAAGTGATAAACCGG…AGGTTGGTTTCACT; site = the 11-nt donor;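 also: IS621 bridge recombinase in Escherichia coli cells against a fixed T5 target plasmid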
Classify by recombinant UMI read abundance (log10). Ranges: small value: < 0.008; mid value: ≥ 0.008 and < 1; large value: ≥ 1

Each sequence maps to one class by recombinant UMI read abundance (log10). Which class for GTGGTTCCATGGACCGGTTTTCCCGGTAATCCGTATTTGGT (site GTCGTTCCTAC) ?
small value

Each sequence maps to one class by recombinant UMI read abundance (log10). Which class for TGGCAGGCATGGACCGGTTTTCCCGGTAATCCGTATTTGGC (site TGGCTGGCTGC) ?
small value

Each sequence maps to one class by recombinant UMI read abundance (log10). Which class for TACTCGACATGGACCGGTTTTCCCGGTAATCCGTATTTGCT (site TACTCGACTAG) ?
large value

Each sequence maps to one class by recombinant UMI read abundance (log10). Which class for CAATGCTCATGGACCGGTTTTCCCGGTAATCCGTATTTGGA (site CAATGCTCTTG) ?
large value

Each sequence maps to one class by recombinant UMI read abundance (log10). Which class for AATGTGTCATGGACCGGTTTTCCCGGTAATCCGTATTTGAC (site AATGAGTCTGT) ?
small value

Each sequence maps to one class by recombinant UMI read abundance (log10). Which class for GCAGGTGCATGGACCGGTTTTCCCGGTAATCCGTATTTGGC (site GCAGGTGCTGC) ?
large value

Each sequence maps to one class by recombinant UMI read abundance (log10). Which class for AGCCTTTCATGGACCGGTTTTCCCGGTAATCCGTATTTGAA (site AGCCTTTCTAT) ?
small value

Each sequence maps to one class by recombinant UMI read abundance (log10). Which class for GCGAAAACATGGACCGGTTTTCCCGGTAATCCGTATTTGAT (site GCGAAAACTAA) ?
small value

Each sequence maps to one class by recombinant UMI read abundance (log10). Which class for ACTATTCCATGGACCGGTTTTCCCGGTAATCCGTATTTGGT (site ACTATTCCTAC) ?
small value

Each sequence maps to one class by recombinant UMI read abundance (log10). Which class for CCCTTAGCATGGACCGGTTTTCCCGGTAATCCGTATTTGTG (site CCATTAGCTCA) ?
mid value

Each sequence maps to one class by recombinant UMI read abundance (log10). Which class for GTGCATCCATGGACCGGTTTTCCCGGTAATCCGTATTTGGT (site GTGCATCCTAC) ?
mid value

Each sequence maps to one class by recombinant UMI read abundance (log10). Which class for CACCCTACATGGACCGGTTTTCCCGGTAATCCGTATTTGAG (site CACCCTACTCT) ?
large value

Each sequence maps to one class by recombinant UMI read abundance (log10). Which class for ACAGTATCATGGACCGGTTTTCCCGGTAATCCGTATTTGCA (site GCCGTATCTTG) ?
large value

Each sequence maps to one class by recombinant UMI read abundance (log10). Which class for GCGCAAACATGGACCGGTTTTCCCGGTAATCCGTATTTGCT (site GCGGAAACTAG) ?
small value

Each sequence maps to one class by recombinant UMI read abundance (log10). Which class for TAGGTATCATGGACCGGTTTTCCCGGTAATCCGTATTTGCG (site TAGGCATCTCG) ?
large value

Each sequence maps to one class by recombinant UMI read abundance (log10). Which class for CTGCCGGCATGGACCGGTTTTCCCGGTAATCCGTATTTGCA (site CTGCCGGCTTG) ?
large value

Each sequence maps to one class by recombinant UMI read abundance (log10). Which class for GAGCGCTCATGGACCGGTTTTCCCGGTAATCCGTATTTGCG (site GAGCGCTCTCG) ?
large value

Each sequence maps to one class by recombinant UMI read abundance (log10). Which class for GACTCCTCATGGACCGGTTTTCCCGGTAATCCGTATTTGCC (site AACTCCTCTGG) ?
large value

Each sequence maps to one class by recombinant UMI read abundance (log10). Which class for GTAGACGCATGGACCGGTTTTCCCGGTAATCCGTATTTGCG (site GTAGCCGCTCG) ?
mid value

Each sequence maps to one class by recombinant UMI read abundance (log10). Which class for CTAGTTTCATGGACCGGTTTTCCCGGTAATCCGTATTTGAA (site CTAGTATCTGT) ?
small value

Each sequence maps to one class by recombinant UMI read abundance (log10). Which class for GTGTATGCATGGACCGGTTTTCCCGGTAATCCGTATTTGGT (site GTGTATGCTAC) ?
large value

Each sequence maps to one class by recombinant UMI read abundance (log10). Which class for CGAGCCTCATGGACCGGTTTTCCCGGTAATCCGTATTTGCG (site CGAGCCTCTCG) ?
large value

Each sequence maps to one class by recombinant UMI read abundance (log10). Which class for AAATGAGCATGGACCGGTTTTCCCGGTAATCCGTATTTGGG (site AAATGAGCTCC) ?
mid value

Each sequence maps to one class by recombinant UMI read abundance (log10). Which class for CACGGCCCATGGACCGGTTTTCCCGGTAATCCGTATTTGTG (site CACGGCCCTCA) ?
mid value

FYI, the data here is from the supplement of paper PMC11208160.
